Origin of the recorded values: patent US7569517B2

Tested on: greenhouse red spider mite (Tetranychus urticae)
Experiment: Tetranychus test (OP-resistance/spray treatment) (Example E)
Type: in vivo
Settings: 100 g/ha; sprayed bean leaf discs
property_label: Kill rate in % after 5d (%)
Numbers only here, please. The scale is %.

Some compounds with recorded Kill rate in % after 5d:
> print(dat)
                         structure.notation  experimental.value
1  Cc1ccc(-c2cccc([N+](=O)[O-])c2)cc1C1(Cl)C(=O)N2CCOCCN2C1=O                 100
2  COc1ccccc1-c1ccc(C)c(C2(Cl)C(=O)N3CCOCCN3C2=O)c1                  90
3  Cc1cc(-c2ccc(Cl)cc2)cc(C)c1C1(Cl)C(=O)N2CCOCCN2C1=O                  90

Proceeding to the next compound to report its Kill rate in % after 5d.
[ask] Lab note: need Kill rate in % after 5d for `Cc1ccc(-c2ccc(F)cc2)cc1C1(Cl)C(=O)N2CCOCCN2C1=O` on greenhouse red spider mite (Tetranychus urticae), anyone have it?
[reply] 90
